FACS Cell Binding (Fold Above Background) values by entry
- target or test system: T1, T47D (native PRLR expressing cell line) (Homo sapiens, UniProt P16471)
- T1 construct: a native PRLR expressing cell line (T47D); endogenous in cells; host or cells: T47D
- T1 sequence (P16471 25-622): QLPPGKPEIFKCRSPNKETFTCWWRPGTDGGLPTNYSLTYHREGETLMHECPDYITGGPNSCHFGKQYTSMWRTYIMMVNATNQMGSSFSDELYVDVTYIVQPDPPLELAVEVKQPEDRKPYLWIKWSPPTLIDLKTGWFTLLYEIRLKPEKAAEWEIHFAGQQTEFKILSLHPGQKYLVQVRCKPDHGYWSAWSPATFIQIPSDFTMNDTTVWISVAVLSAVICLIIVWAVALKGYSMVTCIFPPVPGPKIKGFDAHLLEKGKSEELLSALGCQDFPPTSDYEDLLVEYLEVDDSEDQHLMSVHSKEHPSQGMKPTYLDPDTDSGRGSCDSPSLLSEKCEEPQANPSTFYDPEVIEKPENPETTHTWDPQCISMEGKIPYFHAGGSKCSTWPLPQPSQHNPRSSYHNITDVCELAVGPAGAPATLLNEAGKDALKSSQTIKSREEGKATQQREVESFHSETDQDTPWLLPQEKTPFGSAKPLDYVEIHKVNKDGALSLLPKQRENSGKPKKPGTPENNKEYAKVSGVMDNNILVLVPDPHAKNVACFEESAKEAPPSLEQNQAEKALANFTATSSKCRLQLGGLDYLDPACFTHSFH
- assay method text: FACS cell surface binding
Numeric answer only, unit Fold Above Background assumed.

H1H6960N: human IgG1 Fc form of H2M6960N; anti-PRLR; HCVR/LCVR SEQ ID NOs 322/330 (antibody, V domains shown, human IgG1 Fc) VH: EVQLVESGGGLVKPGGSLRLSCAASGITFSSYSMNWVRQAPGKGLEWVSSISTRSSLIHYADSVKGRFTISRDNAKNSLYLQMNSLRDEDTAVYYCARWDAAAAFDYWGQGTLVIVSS VL: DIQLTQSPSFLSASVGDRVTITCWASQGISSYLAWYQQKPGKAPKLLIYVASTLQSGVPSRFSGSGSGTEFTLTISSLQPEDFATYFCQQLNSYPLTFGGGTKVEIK ... 33
H1H6953N: human IgG1 Fc form of H1M6953N; anti-PRLR; HCVR/LCVR SEQ ID NOs 274/282 (antibody, V domains shown, human IgG1 Fc) VH: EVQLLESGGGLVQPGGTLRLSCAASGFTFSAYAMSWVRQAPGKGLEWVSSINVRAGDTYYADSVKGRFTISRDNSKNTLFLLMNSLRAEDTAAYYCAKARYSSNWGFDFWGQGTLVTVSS VL: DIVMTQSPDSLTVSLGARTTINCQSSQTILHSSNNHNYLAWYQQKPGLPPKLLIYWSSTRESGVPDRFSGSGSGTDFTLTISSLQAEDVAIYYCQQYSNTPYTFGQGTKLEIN ... 40
H1H6804P: anti-PRLR antibody, human IgG1 Fc; HCVR/LCVR SEQ ID NOs 242/250 (antibody, V domains shown, human IgG1 Fc) VH: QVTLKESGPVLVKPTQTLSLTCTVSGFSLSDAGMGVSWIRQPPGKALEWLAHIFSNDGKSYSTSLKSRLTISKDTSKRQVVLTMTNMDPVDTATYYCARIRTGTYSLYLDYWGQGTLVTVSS VL: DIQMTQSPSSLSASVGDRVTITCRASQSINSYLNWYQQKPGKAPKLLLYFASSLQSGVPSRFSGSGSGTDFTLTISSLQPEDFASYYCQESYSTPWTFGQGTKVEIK ... 34

Given item H1H6781P: anti-PRLR antibody, human IgG1 Fc; HCVR/LCVR SEQ ID NOs 50/58 (antibody, V domains shown, human IgG1 Fc) VH: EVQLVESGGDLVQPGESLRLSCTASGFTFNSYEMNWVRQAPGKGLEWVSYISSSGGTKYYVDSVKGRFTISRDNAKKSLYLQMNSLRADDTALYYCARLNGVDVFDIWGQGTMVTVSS VL: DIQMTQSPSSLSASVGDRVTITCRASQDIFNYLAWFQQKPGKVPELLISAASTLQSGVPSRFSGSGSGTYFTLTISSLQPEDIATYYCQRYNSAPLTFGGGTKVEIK , the value recorded as its FACS Cell Binding (Fold Above Background) is 40

Given item H1H6797P: anti-PRLR antibody, human IgG1 Fc; HCVR/LCVR SEQ ID NOs 178/186 (antibody, V domains shown, human IgG1 Fc) VH: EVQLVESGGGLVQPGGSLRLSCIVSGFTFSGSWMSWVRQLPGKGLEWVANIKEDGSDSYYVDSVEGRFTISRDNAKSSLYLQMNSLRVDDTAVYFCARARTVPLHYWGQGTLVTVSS VL: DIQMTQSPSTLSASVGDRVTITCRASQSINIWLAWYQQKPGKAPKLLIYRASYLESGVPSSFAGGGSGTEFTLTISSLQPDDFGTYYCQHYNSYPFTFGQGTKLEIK , the value recorded as its FACS Cell Binding (Fold Above Background) is 38
